Assign inhibition of SARS-CoV-2 cytopathic effect to each entry below.
- Test system: Vero E6 infected with SARS-CoV-2
- ASSAY EXPLANATION: inhibition of SARS-CoV-2 cytopathic effect; higher = more antiviral protection, active = above 15
- ASSAY CONTEXT: 8.33 nM; 48 h
Give bare numbers, in %.

// below: answered molecules
CC(C)(C)C#Cc1cc(N(C(=O)[C@H]2CC[C@H](C)CC2)[C@H]2CC[C@@H](O)CC2)c(C(=O)O)s1
2.19
CCCC(C(=O)OCCN(CC)CC)(c1ccccc1)c1ccccc1 [proadifen]
-2.48

I have 7 molecules here; please give me inhibition of SARS-CoV-2 cytopathic effect for each one.
1. C#CCN(C)Cc1ccccc1 [pargyline]
2. CCCCCS(=O)(=O)CCCCCCCCCCn1c(-c2ccc(O)cc2)c(C)c2cc(O)ccc21
3. N=C1N[C@H]2[C@H](CS[C@H]2CCCCC(=O)O)N1 [2-iminobiotin]
4. CCC(=O)O[C@H]1CC[C@H]2[C@@H]3CCC4=CC(=O)CC[C@]4(C)[C@H]3CC[C@]12C
5. NCC(=O)CCC(=O)O [5-aminolevulinic-acid]
6. NC(=O)c1ccc(N(C(N)=O)c2c(F)cccc2F)nc1-c1ccc(F)cc1F
7. Nc1nccc(Oc2ccc(NC(=O)c3c[nH]cc(-c4ccc(F)cc4)c3=O)cc2F)c1Cl [metatinib]

Out:
1: 0.65; 2: -2.92; 3: 1.48; 4: -10.2; 5: 1.35; 6: -1.25; 7: 0.76

====

- System: Vero E6 infected with SARS-CoV-2
- ASSAY EXPLANATION: inhibition of SARS-CoV-2 cytopathic effect; higher = more antiviral protection, active = above 15
- ASSAY CONTEXT: 8.33 nM; 48 h
RECORDED ENDPOINT: inhibition of SARS-CoV-2 cytopathic effect (%)
Give bare numbers, in %.

CSc1ccccc1Nc1nc(N2CCNCC2)nc2c(NCC3CC3)ncnc12
1.6

For every record below, what is its inhibition of SARS-CoV-2 cytopathic effect?
1. O=C(O)c1cc(=O)c2ccccc2o1 [chromocarb]
2. O=C(O)C(=O)Nc1cccc(-c2nnn[nH]2)c1 [acitazanolast]
3. COc1ccc(-c2nc(C(=O)N3CCN(C)CC3)sc2-c2ccc(OC)cc2)cc1
4. C[C@@H](c1ncncc1F)[C@](O)(Cn1cncn1)c1ccc(F)cc1F [voriconazole]
5. O=C(NNc1nc2cc(F)ccc2n2cccc12)c1cnccn1
6. C[C@@H](C1=C(CCN(C)C)Cc2ccccc21)c1ccccn1 (racemic) [dimetindene]
7. N[C@@H](C[C@@H](F)C(=O)O)C(=O)O

Out:
1: -0.13; 2: -0.89; 3: -0.77; 4: 2.08; 5: 0.82; 6: 0.69; 7: 1.43

====

- Test system: Vero E6 infected with SARS-CoV-2
- ASSAY EXPLANATION: inhibition of SARS-CoV-2 cytopathic effect; higher = more antiviral protection, active = above 15
- ASSAY CONTEXT: 8.33 nM; 48 h
RECORDED ENDPOINT: inhibition of SARS-CoV-2 cytopathic effect (%)
Answers are plain numbers, in %.

COc1ccc(CCN2CCN(CCCc3ccccc3)CC2)cc1OC
0.69

Batch lookup, inhibition of SARS-CoV-2 cytopathic effect per entry.
1. CC(Cc1cccc(C(F)(F)F)c1)NCCOC(=O)c1ccccc1 (configuration not stated)
2. CN[C@H](CNC(=O)N1CCC[C@@H]([C@@H](OCCNC(=O)OC)c2cccc(Cl)c2)C1)C[C@H]1CCCOC1
3. CN1CC[C@H](c2c(O)cc(O)c3c(=O)cc(-c4ccccc4Cl)oc23)[C@H](O)C1
4. Cc1cn(C[C@H](N)C(=O)O)c(=O)n(Cc2ccsc2C(=O)O)c1=O
5. Cc1cc(C)cc(C(=O)NOCCCCCC(=O)NO)c1
6. N#Cc1ccc(C(c2ccc(C#N)cc2)n2cncn2)cc1
7. CC(C)CNc1nc(-c2cccc3ncccc23)cn2c(-c3ccc(C(=O)NC4CC4)cc3)cnc12

Out:
[0.35, -1.3, 1.53, 1.91, -0.95, 4.26, -1.58]

Hey, quick one: what's inhibition of SARS-CoV-2 cytopathic effect for each of these?
1. O=C(Nc1ccc(Br)cc1)c1cc(Br)cc(Br)c1O
2. O=C(Nc1cc(Cl)cc(Cl)c1O)c1c(O)c(Cl)cc(Cl)c1Cl [oxyclozanide]

Out:
[-3.93, -0.46]

====

- System: Vero E6 infected with SARS-CoV-2
- ASSAY EXPLANATION: inhibition of SARS-CoV-2 cytopathic effect; higher = more antiviral protection, active = above 15
- ASSAY CONTEXT: 8.33 nM; 48 h
RECORDED ENDPOINT: inhibition of SARS-CoV-2 cytopathic effect

C/C(=N\NC(=S)N1CCC1)c1ccccn1
0.91% (inactive)
CCN1C(=O)NC(c2ccccc2)C1=O (stereo not given)
4.06% (inactive)
C[C@H](CSC(=O)c1ccccc1)C(=O)N1C[C@@H](Sc2ccccc2)C[C@H]1C(=O)O
-2.52% (inactive)
CC1CCN(CCCC(=O)c2ccc(F)cc2)CC1
-0.88% (inactive)
CC(=O)NC[C@H]1CN(c2ccc(N3CCOCC3)c(F)c2)C(=O)O1
4.06% (inactive)
Nc1nc(=O)n([C@H]2C[C@H](O)[C@@H](CO)O2)cc1F
0.55% (inactive)
NC[C@H](O)c1ccc(O)c(O)c1 [norepinephrine]
-0.56% (inactive)
CSc1nc2ccc3nc(NC(=O)C(c4ccccc4)c4ccccc4)sc3c2s1
1.67% (inactive)

Need inhibition of SARS-CoV-2 cytopathic effect for each of these compounds.
1. COc1ccc(C(=O)c2ccccc2O)c(O)c1
2. CNC(=O)c1c(C)oc2cc(Oc3ncnc4cc(OC)c(OC)cc34)ccc12

Out:
1. -0.38% (inactive)
2. -2.79% (inactive)

====

- Tested on: Vero E6 infected with SARS-CoV-2
- ASSAY EXPLANATION: inhibition of SARS-CoV-2 cytopathic effect; higher = more antiviral protection, active = above 15
- ASSAY CONTEXT: 1 nM; 48 h
RECORDED ENDPOINT: inhibition of SARS-CoV-2 cytopathic effect (%)
Numbers only, in %.

c1ccc(CN(CC2=NCCN2)c2ccccc2)cc1
-3.99
CC(=O)NC[C@H]1CN(c2ccc(N3CCOCC3)c(F)c2)C(=O)O1
-5.81
CN1c2cc3c(cc2N=C(c2ccc(C(=O)O)cc2)c2ccccc21)C(C)(C)CCC3(C)C
4.92

Respectfully, I request inhibition of SARS-CoV-2 cytopathic effect for each entry included below.
1. Clc1cccc(C(c2ccc3[nH]cnc3c2)n2ccnc2)c1 (stereo not given)
2. N[C@@H](Cn1oc(=O)[nH]c1=O)C(=O)O

Out:
0.27
-3.6

====

- Test system: Vero E6 infected with SARS-CoV-2
- ASSAY EXPLANATION: inhibition of SARS-CoV-2 cytopathic effect; higher = more antiviral protection, active = above 15
- ASSAY CONTEXT: 1 nM; 48 h
Assign inhibition of SARS-CoV-2 cytopathic effect to each entry below.
Answers are plain numbers, in %.

NCc1cc(O)no1 [muscimol]
-0.61
Cc1cc(CC(C)CC(C)(C)C)n(O)c(=O)c1 (stereo not given) [piroctone-olamine]
-1.12
CCCOc1ccc2[nH]c(NC(=O)OC)nc2c1 [oxibendazole]
-2.12
CCCCc1nn(-c2ccccc2C(F)(F)F)c(=O)n1Cc1ccc(-c2ccccc2S(=O)(=O)NC(=O)c2sccc2C)cc1
0.19

In: So what's the measured inhibition of SARS-CoV-2 cytopathic effect for this one? CC1(c2ccccc2)OC(C(=O)O)=CC1=O (stereo not given) [acifran]
Out: 0.88

====

For each of the compounds below, state its inhibition of SARS-CoV-2 cytopathic effect.
- Test system: Vero E6 infected with SARS-CoV-2
- ASSAY EXPLANATION: inhibition of SARS-CoV-2 cytopathic effect; higher = more antiviral protection, active = above 15
- ASSAY CONTEXT: 1 nM; 48 h
One number for each entry, in %.

Hi, could you look up inhibition of SARS-CoV-2 cytopathic effect for each item in my list?
1. COC1(C[S@@+]([O-])c2ccccc2)CCN(CCc2c[nH]c3ccc(F)cc23)CC1
2. O=C1CCc2ccc(OCCCCN3CCN(c4cccc(Cl)c4Cl)CC3)cc2N1 [aripiprazole]
3. COc1cc(-n2cnc3cc(-c4ccc(Cl)cc4)sc3c2=O)ccc1OCCN1CCCC1
4. COc1ccc(N(C)c2nc(C)nc3ccccc23)cc1 [verubulin]
5. C[C@@H]1CC(=O)c2c(ccc3c2C(=O)c2cccc(O)c2C3=O)C1 [ochromycinone]
6. CN(N=O)C(=O)N[C@@H](C=O)[C@@H](O)[C@H](O)[C@H](O)CO [streptozotocin]

Out:
1. 1.49
2. 5.18
3. -1.24
4. 0.84
5. -3.4
6. -2.28

I have 4 compounds here; please give me inhibition of SARS-CoV-2 cytopathic effect for each one.
1. c1ccc(Oc2nc(NC3CCCCC3)c3[nH]cnc3n2)cc1
2. O=C(O)c1ccc(/C=C2\SC(=S)N(c3cccc(C(F)(F)F)c3)C2=O)cc1
3. O=C(O[C@@H]1Cc2c(O)cc(O)cc2O[C@@H]1c1ccc(O)c(O)c1)c1cc(O)c(O)c(O)c1 [epicatechin-gallate-(-)]
4. Cc1cc(N)c2ccccc2[n+]1CCCCCCCCCC[n+]1c(C)cc(N)c2ccccc21 [dequalinium]

Out:
[0.79, -0.08, -1.08, 1.5]

Look at each compound and report its inhibition of SARS-CoV-2 cytopathic effect.
1. O=C(O)P(=O)(O)O [foscarnet]
2. COCCNC(=O)Cn1cnc([N+](=O)[O-])n1 [sanazole]
3. C=CC(=O)Nc1cccc(Oc2nc(Nc3ccc(N4CCN(C)CC4)cc3)nc3ccsc23)c1 [olmutinib]
4. CN1C(=O)CC(c2ccccc2)C1=O (stereo not drawn) [phensuximide]
5. OCCN1CCN(CC/C=C2/c3ccccc3Sc3ccc(Cl)cc32)CC1 [zuclopenthixol]
6. C[C@]12CCC(=O)C[C@@H]1CC[C@@H]1[C@@H]2CC[C@]2(C)[C@@H](O)CC[C@@H]12 [Dihydrotestosterone]
7. CCOC(=O)[C@H](CCc1ccccc1)N[C@@H](C)C(=O)N(CC(=O)O)C1Cc2ccccc2C1 [delapril]

Out:
[3.44, -0.19, -1.91, 2.58, -1.15, -0.75, -1.82]

In: // inhibition of SARS-CoV-2 cytopathic effect lookup, key: O=C(O[C@H]1C[N+]2(CCCOc3ccccc3)CCC1CC2)C(O)(c1cccs1)c1cccs1 [aclidinium]
Out: -0.75
